// provenance: ChEMBL document CHEMBL3397026

# Tested on: CHO
# Assay: Cytotoxicity against CHO cells by LDH release assay
# Format: cell-based
# Condition Info: Cricetulus griseus
Metric Name: pIC50
Scale note: pIC50 = -log10(concentration in M).

## Input What measured pIC50 goes with CC(Oc1ccc(Cl)cc1Cl)C(=O)NCc1cnc2[nH]ccc2c1 (stereo not drawn) ?
## Output 4.68

## Input Do the same for COc1ccc(CNC(=O)C(C)Oc2ccc(Cl)cc2Cl)cc1 (stereo not drawn) please
## Output 4.15

## Input Do the same for Cc1ccc(CNC(=O)C(C)Oc2ccc(Cl)cc2Cl)cc1 (stereo not drawn) please
## Output 4.60

----------
# Assay: Inhibition of T3SS-mediated secretion of an ExoS-beta-lactamase fusion protein into the culture medium in Pseudomonas aerguinosa MDM973 assessed as inhibition of nitrocefin hydrolysis by secretion assay
# Parameters: species or system Pseudomonas aeruginosa
pIC50: −log10 of the molar value.
Metric Name: pIC50

## Input What measured pIC50 goes with CC(C)C(Oc1ccc(Cl)cc1Cl)C(=O)NCc1ccc2c(c1)OCO2 (stereo unspecified) ?
## Output < 4.00

## Input Do the same for CC(Oc1ccc(Cl)cc1Cl)C(=O)NC(C(=O)O)c1ccc(F)cc1 (stereo unspecified) please
## Output < 4.00

## Input Do the same for CC(Oc1ccc(Cl)cc1Cl)C(=O)CCc1ccc(F)cc1 (stereo unspecified) please
## Output < 4.00

## Input Do the same for CC(Cc1ccc(Cl)cc1Cl)C(=O)NCc1ccc(F)cc1 (stereo unspecified) please
## Output < 4.00

## Input Do the same for CCCC(Oc1ccc(Cl)cc1Cl)C(=O)NCc1ccc2c(c1)OCO2 (stereo unspecified) please
## Output < 4.00
